Target: LRRK2 G2019S (Homo sapiens, UniProt Q5S007, G2019S)
Construct: expressed in transfected cells; host or cells: HEK293
Sequence (Q5S007 whole entry G2019S): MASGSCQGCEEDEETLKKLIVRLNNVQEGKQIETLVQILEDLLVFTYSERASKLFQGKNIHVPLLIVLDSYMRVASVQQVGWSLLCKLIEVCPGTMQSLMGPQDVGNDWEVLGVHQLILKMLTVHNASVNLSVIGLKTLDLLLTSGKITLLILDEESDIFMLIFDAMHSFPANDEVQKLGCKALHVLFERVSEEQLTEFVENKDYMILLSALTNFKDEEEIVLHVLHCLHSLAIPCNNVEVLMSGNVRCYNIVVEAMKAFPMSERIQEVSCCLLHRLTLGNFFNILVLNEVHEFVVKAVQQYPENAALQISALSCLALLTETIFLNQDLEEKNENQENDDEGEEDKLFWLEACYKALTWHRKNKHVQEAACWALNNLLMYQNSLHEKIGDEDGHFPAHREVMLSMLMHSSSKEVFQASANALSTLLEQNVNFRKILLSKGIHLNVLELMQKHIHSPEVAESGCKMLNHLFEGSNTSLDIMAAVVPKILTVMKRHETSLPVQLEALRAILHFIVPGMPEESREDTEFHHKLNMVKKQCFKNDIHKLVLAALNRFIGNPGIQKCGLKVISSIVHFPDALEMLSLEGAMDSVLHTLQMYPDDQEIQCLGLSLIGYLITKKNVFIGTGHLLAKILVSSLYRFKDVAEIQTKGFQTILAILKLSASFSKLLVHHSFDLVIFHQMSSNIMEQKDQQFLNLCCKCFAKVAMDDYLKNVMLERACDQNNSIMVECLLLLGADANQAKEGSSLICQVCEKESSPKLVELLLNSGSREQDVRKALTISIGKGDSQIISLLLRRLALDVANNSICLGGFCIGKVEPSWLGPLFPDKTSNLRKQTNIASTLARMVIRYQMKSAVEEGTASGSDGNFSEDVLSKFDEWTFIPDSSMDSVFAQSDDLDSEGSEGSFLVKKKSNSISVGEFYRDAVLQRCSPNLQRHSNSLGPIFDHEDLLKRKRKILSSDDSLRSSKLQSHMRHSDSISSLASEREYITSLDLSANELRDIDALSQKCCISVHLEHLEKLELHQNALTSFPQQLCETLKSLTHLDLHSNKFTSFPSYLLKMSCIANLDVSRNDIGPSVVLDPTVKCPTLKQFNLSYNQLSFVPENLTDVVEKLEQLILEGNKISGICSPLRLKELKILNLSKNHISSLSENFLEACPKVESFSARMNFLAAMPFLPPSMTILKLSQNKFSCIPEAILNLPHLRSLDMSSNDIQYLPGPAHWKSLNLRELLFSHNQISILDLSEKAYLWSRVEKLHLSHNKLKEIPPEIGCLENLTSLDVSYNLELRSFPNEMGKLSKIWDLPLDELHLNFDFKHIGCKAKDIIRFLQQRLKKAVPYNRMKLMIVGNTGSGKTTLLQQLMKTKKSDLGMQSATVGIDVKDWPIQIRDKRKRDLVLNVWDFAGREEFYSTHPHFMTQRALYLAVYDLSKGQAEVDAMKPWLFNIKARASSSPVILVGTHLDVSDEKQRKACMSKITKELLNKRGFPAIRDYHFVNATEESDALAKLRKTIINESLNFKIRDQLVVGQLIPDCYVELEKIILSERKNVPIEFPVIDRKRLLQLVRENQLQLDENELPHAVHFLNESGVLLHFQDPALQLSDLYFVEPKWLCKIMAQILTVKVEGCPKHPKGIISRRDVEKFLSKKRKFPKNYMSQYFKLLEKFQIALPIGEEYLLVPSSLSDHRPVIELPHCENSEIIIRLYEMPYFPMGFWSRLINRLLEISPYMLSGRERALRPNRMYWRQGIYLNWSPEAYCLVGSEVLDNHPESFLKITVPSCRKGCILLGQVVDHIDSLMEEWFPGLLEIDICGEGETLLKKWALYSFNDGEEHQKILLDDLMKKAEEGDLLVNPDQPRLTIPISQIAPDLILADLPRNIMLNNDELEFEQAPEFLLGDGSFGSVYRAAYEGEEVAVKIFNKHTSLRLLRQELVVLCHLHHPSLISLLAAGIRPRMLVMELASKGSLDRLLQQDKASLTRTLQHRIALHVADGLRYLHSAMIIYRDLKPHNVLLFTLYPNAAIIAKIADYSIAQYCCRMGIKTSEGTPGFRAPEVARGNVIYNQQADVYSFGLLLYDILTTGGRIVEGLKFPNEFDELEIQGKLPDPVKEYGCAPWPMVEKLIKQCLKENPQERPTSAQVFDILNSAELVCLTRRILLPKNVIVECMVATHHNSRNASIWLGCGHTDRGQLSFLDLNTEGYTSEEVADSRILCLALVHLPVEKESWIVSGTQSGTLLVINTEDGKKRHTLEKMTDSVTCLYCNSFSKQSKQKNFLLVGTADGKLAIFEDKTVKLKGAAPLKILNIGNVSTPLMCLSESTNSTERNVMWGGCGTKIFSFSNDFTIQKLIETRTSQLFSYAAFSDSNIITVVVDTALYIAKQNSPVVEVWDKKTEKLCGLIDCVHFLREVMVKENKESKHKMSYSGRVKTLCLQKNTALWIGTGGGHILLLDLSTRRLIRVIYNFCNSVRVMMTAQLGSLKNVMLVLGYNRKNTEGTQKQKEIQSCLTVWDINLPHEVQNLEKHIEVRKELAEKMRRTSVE
Experiment: Odyssey CLx 96-well ICW assay, LRRK2-Ser935 phosphorylation in transfected HEK293 cells
Assay type: cell-based
Settings: transiently transfected HEK293 cells, overactive variant G2019S, 1 h, mean, n = 3
measured.endpoint: IC50 (nM)
Field format: number, assumed nM, no unit text.

Q: If you can, please state the reported IC50 value of Cc1cccc(-c2cc(Nc3ccn(C)n3)nc3[nH]cc(C#N)c23)c1 [Lu AF58786] .
Result: 19
